The origin of these recorded values is PubChem BioAssay (NCATS).

experiment: Cell Viability - N2a (AID 540); details: N2a mouse neuroblastoma cell viability;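 note: cells exposed to compound for 40 h at 37 °C; nearly all actives have a fitted effect of over 45% in size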
Results filed as inconclusive are left out. Active and inactive are the calls of the source. Calls come from the whole dose curve; as a rule, active = well fitted cell-killing curve with a large enough effect; inconclusive = small, poorly fitted or top-dose-only effect; inactive = flat fitted curve, though single readings scatter.
Hello, when you answer, please use one of the following outcomes: True = active, False = inactive

Known results for molecules:
{"compound": "O=C(Oc1ccccc1)c1ccccc1O", "assigned class": "False"}
{"compound": "CCCCCCCCCCCCCCCC[n+]1ccccc1", "assigned class": "True"}
{"compound": "c1ccc2occc2c1", "assigned class": "False"}

What did this assay record as the result for `CC(C)C(C)(C)C(C)(C)C(C)(C)S` ?
False

What did this assay record as the result for `OCc1c[nH]c2ccccc12` ?
False

====

assay: Cell Viability - Jurkat (AID 426); details: qHTS;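 note: potency is the fitted concentration of half-maximal effect; cells exposed to compound for 40 hours at 37 °C before ATP read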
Records with an inconclusive call do not appear. The source made the active and inactive calls.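 The calls were made as follows: active = dose-dependent loss of cell ATP signal giving a full or clear fitted curve, ranked by lower potency value; inconclusive = weak partial curve or response only at the top dose; inactive = no loss of viability signal.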
attribute measured: Potency

A selection of reference data follows.
{"compound": "Brc1ccccc1-c1ccccc1", "Potency": "> 92 µM (inactive)"}
{"compound": "Nc1c2ccccc2nc2ccccc12", "Potency": "31.9 µM (active)"}
{"compound": "c1ccc2occc2c1", "Potency": "> 92 µM (inactive)"}

// recorded Potency for `CC(=O)OC/C=C(C)/C=C/C=C(C)/C=C/C1=C(C)CCCC1(C)C` : 63.9 µM (active)

// recorded Potency for C1=CC2C3C=CC(C3)C2C1 (stereo unspecified) : > 92 µM (inactive)

// recorded Potency for `Nc1ccc(O)cc1` : 38.6 µM (active)

====

biological target: Chromobox protein homolog 1 (Homo sapiens) (UniProt P83916); experiment: qHTS Validation Assay for Inhibitors of HP1-beta Chromodomain Interactions with Methylated Histone Tails (AID 488953); settings: HP1-beta chromodomain / methylated histone peptide binding assay; series mostly up to 114 µM; note: nearly all actives have a fitted effect of over 50% in size
Sequence (P83916 whole entry, looked up): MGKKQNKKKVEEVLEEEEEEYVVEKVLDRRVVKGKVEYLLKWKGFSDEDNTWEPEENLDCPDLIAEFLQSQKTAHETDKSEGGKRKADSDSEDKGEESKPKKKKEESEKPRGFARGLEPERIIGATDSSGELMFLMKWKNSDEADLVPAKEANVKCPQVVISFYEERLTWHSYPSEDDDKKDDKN
Inconclusive results are not listed. Activity calls are given as the source filed them. Calls follow the shape of the dose curve; as a rule, active = well fitted inhibition curve with a large enough effect; inconclusive = small, poorly fitted or top-dose-only effect; inactive = no such curve, though single readings can be large or run the other way.
Hello, when you answer, please use one of the following outcomes: yes (1) = active, no (0) = inactive

Known results for compounds:
{"compound": "CCN(CC)CCNC(=O)c1ccc(NS(C)(=O)=O)cc1", "assigned class": "no (0)"}
{"compound": "Cc1nn(-c2ccccc2)c(C)c1/C=N/N1CCN(Cc2ccccc2)CC1", "assigned class": "yes (1)"}
{"compound": "O=[N+]([O-])c1ccc(-c2nc(-c3ccc(F)cc3)c(-c3ccncc3)[nH]2)cc1", "assigned class": "yes (1)"}
{"compound": "Clc1ccc2c(c1)N=C(N1CCNCC1)c1ccccc1N2", "assigned class": "no (0)"}
{"compound": "CC(C)N(CCC(=O)c1ccc2ccccc2c1)Cc1ccccc1", "assigned class": "yes (1)"}

Turning now to a further record.
What did this assay record as the result for `C[N+](C)(C)CCO` ?
no (0)

====

assay: qHTS of pediatric cancer cell lines to identify multiple opportunities for drug repurposing: Primary screen for U-2 OS cells (AID 1347096); conditions: U-2 OS viability, CellTiter-Glo luminescence, 48 h; series mostly up to 46 µM;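 note: plate controls were DMSO wells for no effect and bortezomib positive control wells for full effect; nearly all actives have a fitted effect of over 50% in size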
Results filed as inconclusive are left out. Calls of active or inactive are those of the source. Calls follow the shape of the dose curve; as a rule, active = well fitted cell-killing curve with a large enough effect; inconclusive = small, poorly fitted or top-dose-only effect; inactive = flat fitted curve, though single readings scatter. *1 amine or outer side, *2 acyl side, *3 side chain or, on linkers, in order; H or OH if unused. Where a SMILES comes first, the peptide text is derived from it. Bridges are numbered along the chain shown (N, C = ends). [ ]: non-standard residue; d: D form. The star is where a group is joined. ξ: configuration not given here. X10 = NC1=NCCC(C(N[*:1])C(=O)[*:2])N1; ΔAla(3-NHCONH2) = NC(=O)NC=C(N)C(=O)O; ξβ3hOrn = NCCCC(N)CC(=O)*; Dap = NC[CH](N)C(=O)O
attribute measured: activity change, negative = cytotoxic

A selection of reference data follows.
{"compound": "CN1CCCN(C(c2ccccc2)c2ccc(Cl)cc2)CC1 (stereo not given)", "activity change, negative = cytotoxic": "inactive"}
{"compound": "CC(C)(C)NCC(O)COc1ccccc1OCC1CCCO1 (stereo not given)", "activity change, negative = cytotoxic": "inactive"}
{"compound": "NCCCC(N)CC(=O)NCC1NC(=O)C(CO)NC(=O)C(N)CNC(=O)C(C2CCN=C(N)N2)NC(=O)C(=CNC(N)=O)NC1=O (stereo not drawn) (H-[Dap]S[Dap](ξβ3hOrn)[ΔAla(3-NHCONH2)][X10]; lactam 1-C; configuration not given here)", "activity change, negative = cytotoxic": "13.6% [at 0.597 µM] (inactive)"}
{"compound": "c1ccc2occc2c1", "activity change, negative = cytotoxic": "inactive"}

Proceed to the following item.
// recorded activity change, negative = cytotoxic for CCCCCN(CCCOC)C(=O)C(CCC(=O)O)NC(=O)c1ccc(Cl)c(Cl)c1 (stereo not given) : inactive

====

assay: qHTS of pediatric cancer cell lines to identify multiple opportunities for drug repurposing: Primary screen for MG 63 (6-TG R) cells (AID 1347105); conditions: MG 63 (6-TG R) viability, CellTiter-Glo, 48 h; series mostly up to 46 µM; note: % is set by controls: 0 for no effect and ±100 for the full control effect; nearly all actives have a fitted effect of over 50% in size
Records with an inconclusive call do not appear. Calls of active or inactive are those of the source. The call rests on the fitted dose curve; in most records, active means well fitted cell-killing curve with a large enough effect; inconclusive means small, poorly fitted or top-dose-only effect; inactive means no such curve, though single readings can be large or run the other way. Where a SMILES comes first, the peptide text is derived from it.
attribute measured: outcome

A selection of reference data follows.
{"compound": "CC(=O)N[C@@H](CCC(N)=O)C(=O)O", "outcome": "inactive"}
{"compound": "CCc1cccc2c(CCO)c[nH]c12", "outcome": "inactive"}
{"compound": "CC(=O)N1CCN(c2ccc(O)cc2)CC1", "outcome": "inactive"}
{"compound": "CC(=O)N[C@@H](CO)C(=O)N[C@@H](CC(=O)O)C(=O)N[C@@H](CCCCN)C(=O)N1CCC[C@H]1C(=O)O (Ac-SDKP-OH)", "outcome": "inactive"}
{"compound": "Cc1ncc([N+](=O)[O-])n1C", "outcome": "inactive"}

Proceed to the following item.
// recorded outcome for `CCOC(=O)N1CCC(Nc2ccc(Cl)cc2N)CC1` : inactive

====

Experiment: qHTS of pediatric cancer cell lines to identify multiple opportunities for drug repurposing: Confirmatory screen for SJ-GBM2 cells (AID 1347116);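 note: 48 hour compound exposure; nearly all actives have a fitted effect of over 60% in size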
Conditions: SJ-GBM2 glioblastoma cells, viability; series mostly up to 45.9 µM
Protocol: Drug repurposing or repositioning has been offered as a strategy for drug development in oncology programs. […] [1] Shen, M et al. Quantitative high-throughput phenotypic screening of pediatric cancer cell lines identifies multiple opportunities for drug repurposing. […] Cells were assayed in growth media at a density of 500-1,000 cells/well. […] After a 15 min incubation at room temperature, samples were analyzed for luminescence intensity using a ViewLux High-throughput CCD imager equipped with clear filters.
Results filed as inconclusive are left out. Calls of active or inactive are those of the source. The call rests on the fitted dose curve; in most records, active means well fitted cell-killing curve with a large enough effect; inconclusive means small, poorly fitted or top-dose-only effect, or effect the other way; inactive means no such curve, though single readings can be large or run the other way.
Hello, when you answer, please use one of the following outcomes: active, inactive

Known results for compounds:
{"compound": "Nc1c2ccccc2nc2ccccc12", "assigned class": "active"}
{"compound": "CCC1(c2cnc[nH]2)Cc2ccccc2C1", "assigned class": "inactive"}
{"compound": "Cc1cc(OCCOCC[N+](C)(C)Cc2ccccc2)ccc1C(C)(C)CC(C)(C)C", "assigned class": "active"}
{"compound": "C[C@H]1C[C@@H]2[C@H]([C@@H](O)C[C@@]3(C)[C@H]2CC[C@]3(O)C(=O)CO)[C@@]2(C)C=CC(=O)C=C12", "assigned class": "inactive"}
{"compound": "CCCCC(=O)OCC(=O)[C@H]1[C@H](C)C[C@H]2[C@@H]3C[C@H](F)C4=CC(=O)C=C[C@]4(C)[C@@]3(F)[C@@H](O)C[C@@]21C", "assigned class": "active"}
{"compound": "CC(=O)[C@@]1(O)CC[C@H]2[C@@H]3C[C@H](C)C4=CC(=O)CC[C@]4(C)[C@H]3CC[C@@]21C", "assigned class": "active"}

What did this assay record as the result for `CC(C)(C)CC(=O)OCC(=O)[C@@]1(O)CC[C@H]2[C@@H]3CCC4=CC(=O)C=C[C@]4(C)[C@H]3[C@@H](O)C[C@@]21C` ?
inactive

What did this assay record as the result for `CCOC(=O)O[C@]1(C(=O)OCCl)CC[C@H]2[C@@H]3CCC4=CC(=O)C=C[C@]4(C)[C@H]3[C@@H](O)C[C@@]21C` ?
inactive

====

The following compounds are shown together with reported max response values.
test system: HEK293; assay: Cytotoxic Profiling of Annotated Libraries Using Quantitative High-Throughput Screening (AID 1296008); details: Five cell lines viability, CellTiter-Glo ATP luminescence, 48-72 h; active compounds read low; note: % is set by controls: 0 for no effect and ±100 for the full control effect; nearly all actives have a fitted effect of over 60% in size
Results filed as inconclusive are left out.
Hi! Could you send only the number? It should be in %, unit omitted.

A selection of reference data follows.
{"compound": "CC(=O)N(CC(O)CO)c1c(I)c(C(=O)NCCO)c(I)c(C(=O)NCC(O)CO)c1I (stereo unspecified)", "observed": 2.15}
{"compound": "C/C(=C1\\CCOC(=O)S1)N(C=O)Cc1cnc(C)nc1N", "observed": -12.5}
{"compound": "Cn1c(=O)c2c(ncn2CC(=O)O)n(C)c1=O", "observed": -8.26}
{"compound": "O=C1Cc2cc(Cl)ccc2N1", "observed": -3.82}
{"compound": "CCNC(=O)NCCCOc1cccc(CN2CCCCC2)c1", "observed": -59.3}
{"compound": "CCn1ccc(NS(=O)(=O)c2ccc(N)cc2)nc1=O", "observed": -20.6}
{"compound": "O=C(CCCl)NCCc1ccccc1", "observed": -1.92}
{"compound": "OC1(c2ccccc2)CCNCC1", "observed": 1.58}
{"compound": "CC1(C)O[C@@H]2C[C@H]3[C@@H]4CCC5=CC(=O)C=C[C@]5(C)[C@@]4(F)[C@@H](O)C[C@]3(C)[C@]2(C(=O)CO)O1", "observed": -6.9}
{"compound": "Fc1ccc(C(c2ccc(F)cc2)N2CCNCC2)cc1", "observed": -6.69}

Proceed to the following item.
Entry `CCO[C@H](Cc1ccc(OCCc2ccc(OS(C)(=O)=O)cc2)cc1)C(=O)O` : max response on HEK293 = -6.35
